Tested on: Fibroblast
testDescription: Multiplex assay against human fibroblast
Format: toxicity, cell-based
testConditions: 12 h, 10 µM, compound concentration 10 uM, replicate 2

compound	Population Mitotic Cells (%)
COc1cc(NC(=O)CCN2CCC(OC(=O)Nc3ccccc3-c3ccccc3)CC2)c(Cl)cc1CNC[C@H](O)c1ccc(O)c2[nH]c(=O)ccc12 [BATEFENTEROL]	58
C[C@H]1[C@H]2CC[C@H]3[C@@H]4CC=C5C[C@@H](N(C)C)CC[C@]5(C)[C@H]4CC[C@]23CN1C [CONESSINE]	56
CCCn1c(=O)c2[nH]c(C3CCCC3)nc2n(CCC)c1=O	75
CCNC1(C(N)=O)CCN(c2ncnc3c2nc(-c2ccccc2Cl)n3-c2ccc(Cl)cc2)CC1 [OTENABANT]	59
CN(C)CCCc1cc(C(=O)Nc2ccc(-c3ccncc3)cc2)ccc1O.Cl.Cl	51
Cl.Clc1ccc2nsnc2c1NC1=NCCN1 [TIZANIDINE HYDROCHLORIDE]	78
Oc1c(CN2CCN(c3ccccn3)CC2)cc(Cl)c2cccnc12	66
O=C1COc2nccc(-c3ccccc3F)c2CN1Cc1cc(C(F)(F)F)cc(C(F)(F)F)c1	62
C[C@H](NC(=O)c1c(C(F)F)nn(C)c1Oc1cccc(C(F)(F)F)c1)c1ccc(C(=O)O)cc1 [PALUPIPRANT]	64
CN1CCN(c2nc3cc(C(F)(F)F)ccc3n3cccc23)CC1.O=C(O)/C=C\C(=O)O.O=C(O)/C=C\C(=O)O	40
COc1cc(C(=O)N(CCCc2ccccc2)Cc2ccc(CC(=O)O)cc2)cc(OC)c1C	54
N#Cc1c(N)nc(SCc2csc(-c3ccc(Cl)cc3)n2)c(C#N)c1-c1ccc(OCCO)cc1 [CAPADENOSON]	58
CC1(COc2ccc3c(c2)ncn3-c2ccc3cccc(N4CCC(N)CC4)c3n2)COC1 [CRENOLANIB]	65
C[C@@H]1C[C@H]2[C@@H]3CCC4=CC(=O)C=C[C@]4(C)[C@@]3(F)[C@@H](O)C[C@]2(C)[C@@]1(O)C(=O)CO [DEXAMETHASONE]	69
O=C(NCCO)c1cccc(-c2cc(Nc3ccc(OC(F)(F)F)cc3)ncn2)c1	59
CC(C)(C)c1ccc(S(=O)(=O)Nc2ccc(Cl)cc2C(=O)c2cc[n+]([O-])cc2)cc1 [VERCIRNON]	51
COc1ccc2c(c1)C(C(=O)N(Cc1ccc(N(C)C)cc1)c1ccc(C(C)C)cc1)CCC2.Cl (stereo not given)	46
O=S(=O)(c1ccccc1)c1cnc2c(N3CCNCC3)cccc2c1 [INTEPIRDINE]	38
c1cc(OCCCN2CCCCC2)ccc1CN1CCCCC1 [JNJ-5207852]	56
CCCC(CCC)C(=O)O [VALPROIC ACID]	56
Cc1ccccc1C(=O)Nc1ccc(C(=O)N2CCCC(N(C)C)c3ccccc32)cc1.Cl (stereo not given)	54
CCCN1CCC[C@@H]2Cc3n[nH]cc3C[C@H]21.Cl [QUINPIROLE HYDROCHLORIDE]	54
CCOc1c2c(c(OCC)c3ncccc13)CN(c1ccc(CS(=O)(=O)NC(=O)Cc3ccccc3OC)cc1C)C2=O	78
CN(C)c1ccnc2sc3c(=O)n(N4CCCCCC4)cnc3c12	50
COc1c(C)cc(NC(=O)c2nn(Cc3ccc(F)cc3)c3c2CN(C(=O)c2ccc[nH]2)C[C@]3(C)C(N)=O)cc1C	47
